Tgt: Structural capsid protein (Human immunodeficiency virus 1) (UniProt Q76129)
Sequence (Q76129 as listed by the source): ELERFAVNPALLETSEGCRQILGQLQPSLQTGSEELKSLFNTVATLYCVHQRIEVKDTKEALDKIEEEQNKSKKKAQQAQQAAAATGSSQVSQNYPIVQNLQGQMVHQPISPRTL
Test name: Binding affinity to HIV1 capsid protein assessed as viral capsid assembly rate at 1 mM by ultraviolet spectrophotometry (RVb= 60.56 +/- 3.77 milliOD/min)
Readout label: Activity (milli optical density/minute)
Give your answer as a number; write no unit.

Specify measured Activity (milli optical density/minute) for COc1ccc(C(=O)N[C@H](C(=O)N/N=C/c2ccc(O)cc2)[C@@H](C)O)cc1 .
24.9

Note down Activity (milli optical density/minute) recorded for CC[C@@H](C)[C@H](NC(=O)c1ccc(OC)cc1)C(=O)N/N=C/c1ccccc1
25.4

Identify the reported Activity (milli optical density/minute) for the following entry. COc1ccc(C(=O)N[C@H](C(=O)N/N=C/c2ccccc2)[C@H](C)O)cc1
21.4

====

Test name: Cytotoxicity against mock-infected human CEM174 cells after 5 days by MTT assay
Assay type: cell-based
Test context: read-out: TC50
Documented CC50 at 120 h across a set of molecules

Some solved entries appear below for comparison.
INSERT INTO assay_data (compound_smiles, readout_label, endpoint_value) VALUES
  ('COc1ccc(C(=O)N[C@@H](Cc2c[nH]cn2)C(=O)N/N=C/c2ccc(Cl)cc2)cc1', 'CC50 at 120 h', '> 100 µM'),
  ('CC[C@@H](C)[C@H](NC(=O)c1ccc(OC)cc1)C(=O)N/N=C/c1ccccc1', 'CC50 at 120 h', '77.9 µM'),
  ('COc1ccc(C(=O)N[C@H](C(=O)N/N=C/c2ccc(C)cc2)[C@H](C)O)cc1', 'CC50 at 120 h', '> 100 µM'),
  ('COc1ccc(C(=O)N[C@@H](Cc2c[nH]cn2)C(=O)N/N=C/c2ccc([N+](=O)[O-])cc2)cc1', 'CC50 at 120 h', '> 100 µM'),
  ('COc1ccc(C(=O)N[C@@H](Cc2c[nH]cn2)C(=O)N/N=C/c2ccc(O)cc2)cc1', 'CC50 at 120 h', '> 100 µM');

Using known records, supply CC50 at 120 h for COc1ccc(C(=O)N[C@@H](Cc2ccc(O)cc2)C(=O)N/N=C/c2ccc(Cl)cc2)cc1
40 µM

Give a short answer stating reported CC50 at 120 h for COc1ccc(/C=N/NC(=O)[C@H](Cc2c[nH]cn2)NC(=O)c2ccc(OC)cc2)cc1 .
> 100 µM

Name the recorded CC50 at 120 h of the molecule listed here: CC[C@@H](C)[C@H](NC(=O)c1ccc(OC)cc1)C(=O)N/N=C/c1ccc(O)cc1
> 100 µM

Name the recorded CC50 at 120 h of the item COc1ccc(C(=O)N[C@@H](C)C(=O)N/N=C/c2ccccc2)cc1 in your answer.
> 100 µM

====

Tgt: UniProtKB Q76129
Test name: Binding affinity to HIV1 capsid protein assessed as inhibition of viral capsid assembly at 1 mM after 600 mins by turbidity-based ultraviolet spectrophotometry
Active and inactive are the calls of the source. The rule behind the calls is not given here.
// allowed return values: active, inactive

These recorded examples may help you get a feel for the data.
INSERT INTO assay_data (compound_smiles, class) VALUES
  ('COc1ccc(C(=O)N[C@@H](Cc2c[nH]cn2)C(=O)N/N=C/c2ccccc2)cc1', 'active'),
  ('COc1ccc(/C=N/NC(=O)[C@H](Cc2c[nH]cn2)NC(=O)c2ccc(OC)cc2)cc1', 'active'),
  ('CC[C@@H](C)[C@H](NC(=O)c1ccc(OC)cc1)C(=O)N/N=C/c1ccc(C)cc1', 'inactive');

Outcome logged for COc1ccc(C(=O)N[C@@H](Cc2ccc(O)cc2)C(=O)N/N=C/c2ccc(Cl)cc2)cc1 in this assay:
inactive

====

Test name: Cytotoxicity against mock-infected human CEM174 cells after 5 days by MTT assay
Assay type: cell-based
Test context: read-out: TC50
Reported CC50 at 120 h values follow for various compounds

Study these solved cases before continuing.
INSERT INTO results (compound, readout_label, endpoint_value) VALUES
  ('COc1ccc(C(=O)N[C@H](C(=O)N/N=C/c2ccc(O)cc2)[C@@H](C)O)cc1', 'CC50 at 120 h', '> 100 µM'),
  ('CCC(C)[C@H](NC(=O)c1ccc(OC)cc1)C(=O)N/N=C/c1ccc(Cl)cc1 (mixture of isomers)', 'CC50 at 120 h', '> 100 µM'),
  ('COc1ccc(C(=O)N[C@@H](Cc2ccc(O)cc2)C(=O)N/N=C/c2ccco2)cc1', 'CC50 at 120 h', '30.6 µM'),
  ('COc1ccc(C(=O)N[C@H](C(=O)N/N=C/c2ccc(Cl)cc2)[C@@H](C)O)cc1', 'CC50 at 120 h', '> 100 µM'),
  ('COc1ccc(C(=O)N[C@H](C(=O)N/N=C/c2ccccc2)C(C)C)cc1', 'CC50 at 120 h', '> 100 µM'),
  ('COc1ccc(C(=O)N[C@@H](Cc2c[nH]cn2)C(=O)N/N=C/c2ccc(C)cc2)cc1', 'CC50 at 120 h', '> 100 µM');

Give me measured CC50 at 120 h, please, for this compound: COc1ccc(C(=O)N[C@@H](Cc2ccc(O)cc2)C(=O)N/N=C/c2ccccc2)cc1
> 100 µM

Kindly indicate its recorded CC50 at 120 h. Item: COc1ccc(C(=O)N[C@@H](Cc2ccc(O)cc2)C(=O)N/N=C/c2ccc(C)cc2)cc1
41.1 µM

Note down CC50 at 120 h recorded for COc1ccc(C(=O)N[C@@H](Cc2c[nH]cn2)C(=O)N/N=C/c2ccco2)cc1
> 100 µM

====

Known selectivity ratio of a selection of molecules
Test name: Therapeutic index, TC50 for human CEM174 cells to EC50 for SIV-induced syncytium in human CEM174 cells
Assay type: cell-based
Test context: read-out: TI

INSERT INTO results (molecule, readout_label, endpoint_value) VALUES
  ('CC[C@@H](C)[C@H](NC(=O)c1ccc(OC)cc1)C(=O)N/N=C/c1ccc(O)cc1', 'selectivity ratio', '> 24.1'),
  ('CCC(C)[C@H](NC(=O)c1ccc(OC)cc1)C(=O)N/N=C/c1ccc(Cl)cc1 (mixture of isomers)', 'selectivity ratio', '> 12.3'),
  ('COc1ccc(C(=O)N[C@H](C(=O)N/N=C/c2ccccc2)[C@H](C)O)cc1', 'selectivity ratio', '> 130');

Now for another entry.
# return recorded selectivity ratio for input COc1ccc(C(=O)N[C@@H](Cc2c[nH]cn2)C(=O)N/N=C/c2ccco2)cc1
> 11.8

====

Test name: Therapeutic index, TC50 for human CEM174 cells to EC50 for SIV-induced syncytium in human CEM174 cells
Format: cell-based
Test context: read-out: TI
Readout label: selectivity ratio

Example entries and their recorded answers appear below.
INSERT INTO assay_data (compound_smiles, readout_label, endpoint_value) VALUES
  ('CC[C@@H](C)[C@H](NC(=O)c1ccc(OC)cc1)C(=O)N/N=C/c1ccco1', 'selectivity ratio', '> 58.8'),
  ('COc1ccc(/C=N/NC(=O)[C@H](Cc2c[nH]cn2)NC(=O)c2ccc(OC)cc2)cc1', 'selectivity ratio', '> 244'),
  ('COc1ccc(C(=O)N[C@H](C(=O)N/N=C/c2ccc(C)cc2)[C@H](C)O)cc1', 'selectivity ratio', '> 12.2'),
  ('COc1ccc(C(=O)N[C@@H](C)C(=O)N/N=C/c2ccccc2)cc1', 'selectivity ratio', '> 15.6'),
  ('COc1ccc(C(=O)N[C@@H](Cc2ccc(O)cc2)C(=O)N/N=C/c2ccc(C)cc2)cc1', 'selectivity ratio', 7.9),
  ('CC[C@@H](C)[C@H](NC(=O)c1ccc(OC)cc1)C(=O)N/N=C/c1ccccc1', 'selectivity ratio', 10.2),
  ('COc1ccc(C(=O)N[C@@H](Cc2ccc(O)cc2)C(=O)N/N=C/c2ccc(O)cc2)cc1', 'selectivity ratio', '> 12.8'),
  ('COc1ccc(C(=O)N[C@H](C(=O)N/N=C/c2ccccc2)C(C)C)cc1', 'selectivity ratio', '> 24.5'),
  ('COc1ccc(C(=O)N[C@@H](Cc2c[nH]cn2)C(=O)N/N=C/c2ccc([N+](=O)[O-])cc2)cc1', 'selectivity ratio', '> 22.7'),
  ('COc1ccc(C(=O)N[C@@H](Cc2c[nH]cn2)C(=O)N/N=C/c2ccccc2)cc1', 'selectivity ratio', '> 179');

Indicate the recorded selectivity ratio value for this molecule: COc1ccc(C(=O)N[C@H](C(=O)N/N=C/c2ccc(Cl)cc2)[C@@H](C)O)cc1
> 20.1

Identify the reported selectivity ratio for the following entry. COc1ccc(C(=O)N[C@@H](Cc2c[nH]cn2)C(=O)N/N=C/c2ccc(O)cc2)cc1
> 31.4

Dear colleague, please send me the reported selectivity ratio for COc1ccc(C(=O)N[C@@H](Cc2c[nH]cn2)C(=O)N/N=C/c2ccc(Cl)cc2)cc1 when you can.
> 30.6

Please supply the value of reported selectivity ratio for the item COc1ccc(C(=O)N[C@@H](Cc2ccc(O)cc2)C(=O)N/N=C/c2ccccc2)cc1
> 21.7

# credit: ChEMBL document CHEMBL1157643
